These data points were gathered from patent EP2853293B1.

target: tau-tau binding (truncated tau residues 297-390; dGA, and full-length tau (T40)) (Homo sapiens, UniProt P10636); settings: read-out: B50; concentration of compound required to inhibit the tau-tau binding by 50%
Sequence (P10636 614-707): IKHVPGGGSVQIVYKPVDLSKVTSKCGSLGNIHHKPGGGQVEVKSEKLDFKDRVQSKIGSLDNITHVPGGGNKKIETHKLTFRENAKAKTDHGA
Sequence (P10636 1-441 isoform P10636-8): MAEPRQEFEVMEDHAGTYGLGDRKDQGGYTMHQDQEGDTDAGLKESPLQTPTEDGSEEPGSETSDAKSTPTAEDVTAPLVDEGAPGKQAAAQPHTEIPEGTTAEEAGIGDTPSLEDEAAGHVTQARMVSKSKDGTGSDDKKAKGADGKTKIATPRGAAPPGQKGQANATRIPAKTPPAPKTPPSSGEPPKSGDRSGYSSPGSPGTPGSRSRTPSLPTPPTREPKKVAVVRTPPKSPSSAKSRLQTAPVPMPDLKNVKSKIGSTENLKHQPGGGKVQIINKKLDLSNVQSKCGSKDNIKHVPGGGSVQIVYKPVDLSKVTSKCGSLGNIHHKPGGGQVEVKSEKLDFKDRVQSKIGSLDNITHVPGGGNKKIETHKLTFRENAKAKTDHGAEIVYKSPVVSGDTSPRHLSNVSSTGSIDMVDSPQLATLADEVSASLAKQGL
Quantity Measured: IC50

{"columns": ["Molecule", "Result Value"],
 "data": [
  ["CCN(CC)c1ccc2nc3ccc(=[N+](CC)CC)cc-3sc2c1 [ETI, ethyl-thioninium iodide]", "> 500 µM"]
]}

====

target: tau-tau binding (truncated tau residues 297-390; dGA, and full-length tau (T40)) (Homo sapiens); experiment: biochemical
pIC50: −log10 of the molar value.

{"columns": ["Smi", "pIC50"],
 "data": [
  ["CCN(CC)c1ccc2nc3ccc(=[N+](CC)CC)cc-3sc2c1", 4.08]
]}
